experimental-readout: melting point

O=C(N/N=C/c1cc(C(F)(F)F)cc(Cl)c1O)c1ccc(Cl)cc1 | 208 to 210 °C
C/C(=N\NC(=O)c1c(C)cccc1O)c1cc(Cl)cc(Cl)c1O | 245 °C
O=C(N/N=C/c1c(Cl)ccc(Cl)c1O)c1ccccc1 | 204 to 205 °C
Cc1ccc(C(=O)N/N=C/c2ccc(Cl)cc2O)cc1 | 258 to 260 °C
Cc1cccc(C(=O)N/N=C/c2cccc(Cl)c2O)c1 | 166 to 169 °C

Which melting point value belongs to "O=C(N/N=C/c1cc(C(F)(F)F)cc(Cl)c1O)c1ccc(F)cc1" ?
200 to 202 °C

Which melting point is reported for this compound? "COc1cc(Br)cc(/C=N/NC(=O)c2cc(C)cc(C)c2)c1O"
189 to 193 °C

Please look up its melting point: "C/C(=N\NC(=O)c1ccc(C)cc1)c1cc(Cl)ccc1O"
221 to 228 °C

What value of melting point has been reported for the following compound? "O=C(N/N=C/c1cc(Cl)cc(C(F)(F)F)c1O)c1ccccc1"
225 to 226 °C

Query (compound): "COc1cccc(C(=O)N/N=C/c2cc(Cl)cc(Br)c2O)c1" ; field requested: melting point
166 to 168 °C

---

- Test system: Leptosphaeria nodorum (LEPTNO)
- protocol-summary: In vitro fungitoxicity of hydrazones with and without copper towards Leptosphaeria nodorum (Example 26)
- Type: cell-based
- condition-context: copper-plus medium (CuCl2 10 μM); test compound Concn. 0.05 μg/mL; 72 h at 25° C.
experimental-readout: LEPTNO % Inhn. Plus Copper Observed (%)
Reply with just the number (in %).

C/C(=N\NC(=O)c1ccccc1)c1cc(F)cc(F)c1O [Example 572] | 97.4
O=C(N/N=C/c1cccc(Cl)c1O)c1ccc([N+](=O)[O-])cc1 [Example 430] | 98.2
O=C(N/N=C(/c1cc(Cl)cc(Cl)c1O)C1CC1)c1ccccc1 [Example 589] | 97.9
O=C(N/N=C(/c1cc(Cl)cc(Cl)c1O)C(F)(F)F)c1ccccc1 [Example 587] | 96.6
COc1ccc(/C(C)=N/NC(=O)c2ccc(Br)cc2)c(O)c1OC [Example 559] | 97.3

Consider the record given below.
What does the record list as LEPTNO % Inhn. Plus Copper Observed for COc1cc(O)c(/C(C)=N/NC(=O)c2ccccc2C)c(OC)c1 [Example 584] ?
11.8

---

- Tested on: Phytophthora infestans
- Format: in vivo, Phytophthora infestans on tomato
- condition-context: hydrazone 50 ppm + 50 μM CuCl2.2H2O, applied 24 h before inoculation, assessed 7 days after inoculation, tomato
Mark True for TLB % Control under 80%, False if at or over.

Check out these entries, answers already filled in.
C/C(=N\NC(=O)c1cccc(C)c1)c1cc(Cl)cc(Cl)c1O | False
COc1ccc(O)c(/C(C)=N/NC(=O)c2ccccc2)c1 | True
O=C(N/N=C/c1cc(Cl)cc(Br)c1O)c1ccccc1Cl | True

Just wondering, is TLB % Control of "O=C(N/N=C/c1cc(Cl)cc(Cl)c1O)c1ccccc1" below 80%?
False

Please check: TLB % Control for "O=C(N/N=C/c1cc(Cl)cc(Br)c1O)c1ccc(Cl)cc1" , strictly under 80% or not?
False

API: query returns whether the compound falls strictly under 80% in TLB % Control. Query: "C/C(=N\NC(=O)c1ccccc1Cl)c1cc(Cl)cc(Cl)c1O"
True

Given "C/C(=N\NC(=O)c1cccc(Br)c1)c1ccccc1O" , is recorded TLB % Control strictly lower than 80%?
True

Dear colleague, could you confirm whether TLB % Control of "C/C(=N\NC(=O)c1cccc(Cl)c1)c1cccc([N+](=O)[O-])c1O" falls below 80%? Thanks.
True

---

- Test system: Leptosphaeria nodorum (LEPTNO)
- protocol-summary: In vitro fungitoxicity of hydrazones with and without copper towards Leptosphaeria nodorum (Example 26)
- Type: cell-based
- condition-context: copper-plus medium (CuCl2 10 μM); test compound Concn. 0.05 μg/mL; 72 h at 25° C.
Catalogue of LEPTNO % Inhn. Plus Copper Observed readings, one per entry.
Please state the figure in %; there is no need to write the unit.

Here's what some known entries look like.
Cc1ccc(C(=O)N/N=C/c2cccc(C(F)(F)F)c2O)cc1 [Example 344] | 91.8
C/C(=N\NC(=O)c1ccccc1Br)c1cc(Cl)ccc1O [Example 514] | 97.7
Cc1ccc(C(=O)N/N=C/c2cc(Cl)cc(Br)c2O)c(O)c1 [Example 434] | 97.4

Could you share which LEPTNO % Inhn. Plus Copper Observed value was measured for O=C(N/N=C/c1ccc(Cl)c(Cl)c1O)c1ccc([N+](=O)[O-])cc1 [Example 361] ?
96.4

Looking for the measured LEPTNO % Inhn. Plus Copper Observed of O=C(N/N=C/c1c(O)cccc1Cl)c1cccc(Cl)c1 [Example 402] , can you help?
95.2

---

# maps each entry to its LEPTNO % Inhn. Plus Copper Observed
- Tested on: Leptosphaeria nodorum (LEPTNO)
- protocol-summary: In vitro fungitoxicity of hydrazones with and without copper towards Leptosphaeria nodorum (Example 26)
- Assay type: cell-based
- condition-context: copper-plus medium (CuCl2 10 μM); test compound Concn. 0.05 μg/mL; 72 h at 25° C.
A number alone suffices; assume %.

The following compounds have reported results that may help.
C/C(=N\NC(=O)c1ccc(Br)cc1)c1cc(C(F)(F)F)ccc1O | 97.7
O=C(N/N=C/c1cc(C(F)(F)F)cc(C(F)(F)F)c1O)c1cccc(Cl)c1 | 97.8
COc1ccc(/C(C)=N/NC(=O)c2cccc(C)c2)c(O)c1OC | 93.2
C/C(=N\NC(=O)c1ccccc1O)c1cc(Br)ccc1O | 96.7
COc1ccc(/C(C)=N/NC(=O)c2ccccc2Br)c(O)c1 | 93.9

Please look up its LEPTNO % Inhn. Plus Copper Observed: "O=C(N/N=C/c1c(Cl)ccc(Cl)c1O)c1ccc(Cl)cc1"
97.5

Consider the compound "C/C(=N\NC(=O)c1ccccc1)c1cc(Cl)ccc1O" and give its measured LEPTNO % Inhn. Plus Copper Observed.
97.6

What LEPTNO % Inhn. Plus Copper Observed value was documented for this compound, "O=C(N/N=C/c1ccc(Cl)cc1O)c1ccc([N+](=O)[O-])cc1" ?
95.9

What value of measured LEPTNO % Inhn. Plus Copper Observed is listed for "C/C(=N\NC(=O)c1ccc(C(F)(F)F)cc1)c1cc(Cl)ccc1O" ?
98.0

---

- Tested on: Leptosphaeria nodorum (LEPTNO)
- protocol-summary: In vitro fungitoxicity of hydrazones with and without copper towards Leptosphaeria nodorum (Example 26)
- Type: cell-based
- condition-context: Parastagonospora nodorum, 72 h, compound 0.05 μg/mL, copper-minus medium, 72 h at 25° C.; read-out: LEPTNO % Inhn. Minus Copper Observed
inhibition of growth at 0.05 µg/mL listing for selected molecules.
Give a bare numeral; the unit % is implied.

Use these answered entries as a reference point.
COc1ccc(/C(C)=N/NC(=O)c2ccccc2)c(O)c1 | 2.2
O=C(N/N=C/c1cc(Cl)cc(Br)c1O)c1ccc(Cl)cc1 | 11.4
Cc1ccc(C(=O)N/N=C/c2ccccc2O)cc1 | 0
C/C(=N\NC(=O)c1ccc(Br)cc1)c1cc(Cl)cc(Cl)c1O | 1.7

From here, focus on the item given below.
Param readout= inhibition of growth at 0.05 µg/mL; system= Leptosphaeria nodorum (LEPTNO); entry= "O=C(N/N=C/c1cc(Cl)cc(Cl)c1O)c1cccc([N+](=O)[O-])c1" ; returns value.
12.4

---

- Tested on: Phytophthora infestans
- Type: in vivo, Phytophthora infestans on tomato
- condition-context: hydrazone 50 ppm + 50 μM CuCl2.2H2O, applied 24 h before inoculation, assessed 7 days after inoculation, tomato
Values of TLB % Control greater than or equal to 60% map to yes (1); values below map to no (0).

Record excerpt, results attached:
O=C(N/N=C/c1cc([N+](=O)[O-])cc(Br)c1O)c1cccc(Cl)c1 [Example 201] | no (0)
O=C(N/N=C/c1cc(Cl)cc(Cl)c1O)c1cccc(C(F)(F)F)c1 [Example 249] | yes (1)
C/C(=N\NC(=O)c1ccc(C(F)(F)F)cc1)c1ccccc1O [Example 11] | no (0)
Cc1ccc(C(=O)N/N=C/c2cc(Cl)ccc2O)cc1 [Example 180] | no (0)
Cc1ccc(/C=N/NC(=O)c2ccc(C(C)C)cc2)c(O)c1 [Example 14] | no (0)
Cc1ccccc1C(=O)N/N=C/c1cc(Cl)cc(Cl)c1O [Example 77] | no (0)
CC(C)(C)c1ccc(C(=O)N/N=C/c2cc(Cl)cc(Cl)c2O)cc1 [Example 87] | yes (1)
CC/C(=N\NC(=O)c1ccc(C)cc1C)c1ccccc1O [Example 30] | no (0)

Check if TLB % Control >= 60% (inclusive). Item: O=C(N/N=C/c1cc(Cl)cc(Cl)c1O)c1ccc(OC(F)(F)F)cc1 [Example 100]
yes (1)
